- TARGET_OF_ASSAY: Angiotensin-converting enzyme (Homo sapiens)
- Sequence (P12821 whole entry, the tested form may be a part): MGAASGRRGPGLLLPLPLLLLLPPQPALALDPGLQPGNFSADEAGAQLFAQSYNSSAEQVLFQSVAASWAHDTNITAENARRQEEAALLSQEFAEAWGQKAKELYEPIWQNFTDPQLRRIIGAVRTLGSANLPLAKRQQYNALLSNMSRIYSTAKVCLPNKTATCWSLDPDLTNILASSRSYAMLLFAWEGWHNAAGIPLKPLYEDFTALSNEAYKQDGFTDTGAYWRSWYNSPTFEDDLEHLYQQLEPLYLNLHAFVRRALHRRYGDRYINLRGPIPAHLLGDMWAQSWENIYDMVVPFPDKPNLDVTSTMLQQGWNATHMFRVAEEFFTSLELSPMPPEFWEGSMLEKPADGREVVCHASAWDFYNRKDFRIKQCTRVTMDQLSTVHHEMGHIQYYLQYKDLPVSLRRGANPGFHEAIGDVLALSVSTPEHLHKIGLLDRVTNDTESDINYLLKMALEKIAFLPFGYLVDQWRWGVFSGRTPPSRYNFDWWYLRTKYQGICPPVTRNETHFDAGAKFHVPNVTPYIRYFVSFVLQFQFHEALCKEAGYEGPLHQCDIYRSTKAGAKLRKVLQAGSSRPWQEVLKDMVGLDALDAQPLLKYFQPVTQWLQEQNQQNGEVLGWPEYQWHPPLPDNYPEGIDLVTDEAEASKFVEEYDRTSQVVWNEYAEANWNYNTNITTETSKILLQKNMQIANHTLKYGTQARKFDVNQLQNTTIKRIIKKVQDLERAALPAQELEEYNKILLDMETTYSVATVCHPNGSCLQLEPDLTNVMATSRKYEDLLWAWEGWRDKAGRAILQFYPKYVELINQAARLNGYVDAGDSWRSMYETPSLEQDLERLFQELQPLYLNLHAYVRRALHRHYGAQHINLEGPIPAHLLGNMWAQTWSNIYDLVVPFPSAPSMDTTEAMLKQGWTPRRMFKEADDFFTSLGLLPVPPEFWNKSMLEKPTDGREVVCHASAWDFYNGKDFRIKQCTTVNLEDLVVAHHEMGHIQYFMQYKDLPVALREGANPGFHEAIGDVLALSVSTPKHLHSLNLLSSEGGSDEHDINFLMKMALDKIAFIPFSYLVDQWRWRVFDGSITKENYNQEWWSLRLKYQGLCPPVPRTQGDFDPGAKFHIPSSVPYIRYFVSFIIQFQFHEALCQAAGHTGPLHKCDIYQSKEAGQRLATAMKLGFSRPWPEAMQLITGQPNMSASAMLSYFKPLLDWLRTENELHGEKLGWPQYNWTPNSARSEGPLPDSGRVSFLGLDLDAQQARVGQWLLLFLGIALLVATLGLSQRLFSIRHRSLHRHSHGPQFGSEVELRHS
- METHOD: Inhibition of human glycosylated N-terminal catalytic ACE domain using Cbz-Phe-His-Leu substrate by fluorogenic end point activity assay
MEASURED_METRIC: IC50 (µM)

P: NCCCC[C@H](N[C@@H](CCc1ccccc1)C(=O)O)C(=O)N[C@@H](Cc1c[nH]c2ccccc12)C(=O)O
Q: Cc1ccc([C@H]2CC[C@@H](C(=O)O)N2C(=O)CN[C@@H](CCc2ccccc2)C(=O)O)cc1
[ask] Endpoint returns the identifier whose IC50 is numerically larger, either P or Q . The response must carry the label of the picked entry.
[reply] Q

###

- TARGET_OF_ASSAY: Neprilysin (Homo sapiens, UniProt P08473)
- Sequence (P08473 whole entry): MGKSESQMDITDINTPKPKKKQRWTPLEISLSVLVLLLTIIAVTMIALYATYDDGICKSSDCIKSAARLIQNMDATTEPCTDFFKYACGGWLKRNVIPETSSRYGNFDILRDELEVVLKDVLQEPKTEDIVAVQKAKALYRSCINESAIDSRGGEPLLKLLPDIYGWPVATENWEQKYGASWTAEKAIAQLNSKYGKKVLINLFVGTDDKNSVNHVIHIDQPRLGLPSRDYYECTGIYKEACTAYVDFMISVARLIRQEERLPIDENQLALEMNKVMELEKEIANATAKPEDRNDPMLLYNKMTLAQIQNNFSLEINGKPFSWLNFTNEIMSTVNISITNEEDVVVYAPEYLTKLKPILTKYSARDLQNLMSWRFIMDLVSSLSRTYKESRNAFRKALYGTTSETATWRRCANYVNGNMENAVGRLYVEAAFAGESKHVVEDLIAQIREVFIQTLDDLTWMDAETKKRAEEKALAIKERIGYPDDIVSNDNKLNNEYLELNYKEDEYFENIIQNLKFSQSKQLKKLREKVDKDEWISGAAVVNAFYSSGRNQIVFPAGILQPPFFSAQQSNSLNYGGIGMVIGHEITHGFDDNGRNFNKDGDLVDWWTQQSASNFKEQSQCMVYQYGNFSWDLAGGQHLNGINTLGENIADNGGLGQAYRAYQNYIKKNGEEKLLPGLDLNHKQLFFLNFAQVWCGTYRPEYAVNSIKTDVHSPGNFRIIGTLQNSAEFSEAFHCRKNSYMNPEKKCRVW
pIC50: −log10 of the molar value.
MEASURED_METRIC: pIC50

[ask] Give the reported value of pIC50 for this record: Cc1ccc([C@H]2CC[C@@H](C(=O)O)N2C(=O)CN[C@@H](CCc2ccccc2)C(=O)O)cc1
[reply] < 4.00
